All values here come from patent US20240075087A1.

assay.target: CYP3A12 (Canis lupus familiaris, UniProt P24463)
Sequence (P24463 whole entry): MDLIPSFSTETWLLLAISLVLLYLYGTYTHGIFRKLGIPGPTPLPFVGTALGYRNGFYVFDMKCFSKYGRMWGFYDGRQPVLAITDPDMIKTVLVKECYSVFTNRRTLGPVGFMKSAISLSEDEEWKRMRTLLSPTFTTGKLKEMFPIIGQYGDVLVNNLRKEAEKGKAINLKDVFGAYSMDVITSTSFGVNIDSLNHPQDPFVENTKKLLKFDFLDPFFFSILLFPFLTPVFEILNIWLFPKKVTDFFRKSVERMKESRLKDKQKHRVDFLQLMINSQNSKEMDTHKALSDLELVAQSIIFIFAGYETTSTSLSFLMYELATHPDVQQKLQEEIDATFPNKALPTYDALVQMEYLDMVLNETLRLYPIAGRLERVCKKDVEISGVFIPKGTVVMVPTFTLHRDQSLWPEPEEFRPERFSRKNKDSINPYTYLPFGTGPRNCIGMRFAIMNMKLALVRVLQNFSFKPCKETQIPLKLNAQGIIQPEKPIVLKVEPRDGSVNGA
measured.endpoint: IC50

Give the reported IC50 for this molecule. C=C(C)[C@@H]1CCC(C)=C[C@H]1c1c(O)cc(CCCCC)cc1O [CBD, cannabidiol]
< 1000 nM
